For each of the molecules below, state its growth.
Tested on: RPMI-8226 leukemia
test_method_notes: NCI-60 one-dose screen, 48 h (100 = growth as untreated, 0 = no growth, -100 = all killed)
condition_parameters: 10 µM unless noted
This is part of a sample that, as a whole, favours compounds with a hit. Of some 83,000 tested, about 20% had one in any assay.
Numbers only, in %.

Hey, quick one: what's growth for each of these?
1. Clc1ccc(-c2nnc(-c3ccco3)o2)cc1
2. O=C1C(Cl)C(c2ccccc2Cl)N1n1cnnc1 (centres undefined)
3. Clc1ccc(/C=N\N=c2\scc(-c3ccc(Cl)cc3)n2/N=C/c2ccc(Cl)cc2)cc1

Reply:
1. 93.8
2. 102
3. 106

Hey, quick one: what's growth for each of these?
1. O=C1C=CC(=Nc2cc(Br)c(O)c(Br)c2)C=C1
2. CC1=CC(=O)C(C(C)C)=CC1=Nc1cc(Br)c(O)c(Br)c1
3. Clc1ccc2c(NCCCN3CCN(c4nc(-n5ccnc5)nc5ccccc45)CC3)ccnc2c1
4. CCCCN(CCCC)CCCn1c(=O)c2sc3ncccc3c2n2nnc(-c3ccccc3)c12
5. CCCN1CCN(c2ccc3nc(-c4ccc5nc(-c6cc(OC)c(OC)c(OC)c6)[nH]c5c4)[nH]c3c2)CC1
6. C[C@@H]1CC[C@@H]2[C@@H]1[C@H](OC(=O)/C=C/c1ccccc1)[C@]1(CCCOCCOCCOCCOC(=O)CCCC[C@@H]3SC[C@@H]4NC(=O)N[C@@H]43)C[C@@H](OC(=O)CO)[C@@]2(C)O1

Reply:
1: -18.9; 2: -8.71; 3: -48.6; 4: 96.4; 5: 95.3; 6: 112

---

Tested on: RPMI-8226 leukemia
test_method_notes: NCI-60 one-dose screen, 48 h
condition_parameters: 10 µM unless noted
This is part of a sample that, as a whole, favours compounds with a hit. Of some 83,000 tested, about 20% had one in any assay. Activity calls are given as the source filed them. The calls were made as follows: active = growth percent below 10; inactive = the rest.
Return exactly one item of active, inactive

Examples from the recorded data:
{"molecule": "CC1=NN(c2cccc(Cl)c2)C(=O)/C1=C\\c1cn(CC(O)CN2CCCCC2)c2ccccc12 (configuration not stated)", "qualitative_label": "inactive"}
{"molecule": "N#Cc1c(-c2ccccc2)nc(SCC2CO2)nc1N1CCOCC1 (configuration not stated)", "qualitative_label": "inactive"}
{"molecule": "CCCCCCCC/C=C/CCCCCCCC1=NCC[N+]1(CCO)CCO", "qualitative_label": "inactive"}
{"molecule": "COc1ccc2cc(-c3ccc(C(=O)NN)c(C)n3)ccc2c1", "qualitative_label": "inactive"}
{"molecule": "NC(N)=N/N=C(/c1ccccc1)c1ccccc1F", "qualitative_label": "active"}

Continue with the molecule presented below.
Ask: Call for entry CNC(=O)NCC1OC(n2cnc3c(NC(=O)Nc4ccccc4)ncnc32)C2OC(C)(C)OC12 (configuration not stated) :
Reply: inactive

---

For each of the compounds below, state its growth.
Tested on: SNB-19 CNS
test_method_notes: NCI-60 one-dose screen, 48 h (100 = growth as untreated, 0 = no growth, -100 = all killed)
condition_parameters: 10 µM unless noted
This is part of a sample that, as a whole, favours compounds with a hit. Of some 83,000 tested, about 20% had one in any assay.
Numbers only, in %.

{"compound": "Cc1nc(Nc2ccccn2)sc1C(=O)/C=C/c1ccc(Br)cc1", "u": "%", "growth": 69.2}
{"compound": "C(=C\\c1nc2ccccc2[nH]1)/c1nc2ccccc2[nH]1", "u": "%", "growth": 109}
{"compound": "Cn1c(NCCc2ccc(O)c(O)c2)nc2c1c(=O)n(Cc1ccc(Cl)cc1)c(=O)n2C", "u": "%", "growth": 93}

Hey, quick one: what's growth for each of these?
1. CCOC(=O)Cc1csc2nc(-c3ccccc3)nn12
2. CN=C1C=CC(=C(c2ccc(N(C)C)cc2)c2ccc(N(C)C)cc2)C=C1
3. CSc1ccc(Cl)c(C(=O)Nc2sccc2C(N)=O)c1
4. N#Cc1c(N)nc2c(nnn2-c2cccc(C(F)(F)F)c2)c1N
5. Cc1c(C)c2c(c(C)c1NC(=O)/C=C\C(=O)O)CCC(C)(CCCC(C)CCCC(C)CCCC(C)C)O2 (stereo not given)

Reply:
1: 90.2; 2: 3.16; 3: 80.6; 4: 93.1; 5: 78.1
